tested on: muMax20 (Max(13-93) K31hArg/K57hArg, M65Nle); assay: PBM 8-mer E-score (E-score (rank enrichment, -0.5 to 0.5)); higher = stronger preferential binding
Whole data set: some 33,000 sequences, median “E-score (rank enrichment, -0.5 to 0.5)” near -0.0068, cut for the highest 2% near 0.24. This excerpt belongs to a sample that is enriched for the highest values.
If the reported PBM 8-mer E-score equals or exceeds 0.2, assign true. If not, assign false.

query_sequence | label_value
ACCACATC | false
ATATAATG | true
ATAAACAA | true
CATTGCGG | false
ACATAGTA | false
CAAAACTA | false
AGAAACAC | false
AGCACATA | false
ATGGACTA | false
GGAAACAA | false
ATAAAACG | false
CTATAGTA | false
ATCACATC | false
ATAAACAC | false
AACGTTGA | true
ATAAAGTA | true
GTATAGTA | true
ATAAACGA | true
AACAAATA | true
GGATAATA | false
CCAGGCTA | false
CGAGAAGA | false
CTAAAGTA | false
AACAAGTT | false
ATAAAACA | true
TAAAACTA | true
ATGACGCG | false
ATCGGTTA | false
AACAAGTA | false
CTAGGTGA | false
GAATAATA | false
CATAGGTC | false
AGCACATC | false
GGCTGACA | false
AGAAACAA | true
ATCACATA | false
AGGCCGGC | false
AACAAACA | true
AACAAATT | true
ATAAAGTG | false
ATATAATA | true
ATCTGGTA | false
ACCACATG | true
ATAAAGTC | true
GTATAATA | true
CTACTTAA | false

* * *

test system: muMax20 (Max(13-93) K31hArg/K57hArg, M65Nle); assay: PBM 8-mer E-score (E-score (rank enrichment, -0.5 to 0.5)); higher = stronger preferential binding
The full ranking holds about 33,000 sequences; the median of “E-score (rank enrichment, -0.5 to 0.5)” is about -0.0068, and the highest 2% start at about 0.24. Only a selection was taken, and the highest values are over-represented in it overall.
Listing: PBM 8-mer E-score of selected sequences

query_sequence | PBM 8-mer E-score
CAATAACA | 0.26
ATATATTC | 0.201
GGCGTACA | -0.082
CTCCAAGC | -0.018
GCGCTACA | -0.0407
GATCTATA | -0.0926
CAATATTA | 0.221
TCATCTCA | -0.000685
AACACGGT | -0.129
AATCCTGA | -0.167
TATATATA | 0.228
GAATAACA | 0.175
GTAGAATA | 0.235
ACTATGCG | 0.16
ACGCTACA | 0.255
CAATAATA | 0.304
AAATATTA | 0.27
AAATAATC | 0.0578
CATATGTA | 0.257
AATATATG | 0.208
TATCAACA | 0.158
ATAAGAGG | 0.0841
ACAAGGGT | 0.0627
AAATATTG | 0.138
TAGAAGAA | -0.0576
CTATATTC | 0.262
CCGTGATA | -0.0912
AAATAATA | 0.232
ACGGCACC | -0.104
CTCTATTC | 0.00532
ACGTGATG | 0.294
CATATAGG | 0.147
ACGTGATA | 0.33
GCAGATCA | -0.15
AATATGTA | 0.124
AACAGTAA | -0.00834
ATGTGATA | 0.24
TCATAGCA | 0.108
CTATACCC | -0.0276
AAGTAGCC | -0.0862
AATCTATA | 0.143
CATCTATA | 0.278
CGACGGTC | -0.172
AAACCGTC | -0.172
ACGGGTAG | -0.226
TCGATGAA | -0.0576
